System: SN12C
Experiment: GI50, drug alone; higher = less potent
Conditions: treatment: drug alone; 5 days
Below, each entry is listed with its recorded GI50, drug alone.

Given the compound Oc1cc(O)cc(/C=C/c2ccc(O)c(O)c2)c1 , what is its reported GI50, drug alone?
> 10 µM

What about this compound? CO[C@H]1CC2CC[C@@H](C)[C@@](O)(O2)C(=O)C(=O)N2CCCC[C@H]2C(=O)O[C@H]([C@H](C)C[C@@H]2CCC(OC(=O)C(C)(CO)CO)[C@H](OC)C2)CC(=O)[C@H](C)/C=C(\C)[C@@H](O)[C@@H](OC)C(=O)[C@H](C)C[C@H](C)/C=C/C=C/C=C/1C (stereo in doubt)
> 10 µM

What about this compound? CN(C)CC[C@H](CSc1ccccc1)Nc1ccc(S(=O)(=O)NC(=O)c2ccc(N3CCN(Cc4ccccc4-c4ccc(Cl)cc4)CC3)cc2)cc1[N+](=O)[O-]
> 10 µM
